Entry source: PubChem BioAssay (Tox21)

Tested on: thyroid hormone receptor (rat, GH3 cells)
Test: qHTS assay to identify small molecule agonists of the thyroid receptor (TR) signaling pathway (AID 743066)
Settings: GH3.TRE-Luc cells, TR agonist luciferase, 24 h; series mostly up to 83.9 µM
Inconclusive results are not listed. Activity calls are given as the source filed them. The call rests on the fitted dose curve.

| COMPOUND | outcome |
| --- | --- |
| CN(C)CCC(c1ccccc1)c1ccccn1 (centres undefined) | inactive |
| CCCCCOC(C)=O | inactive |
| CCCCOC(=O)COc1ccc(Cl)cc1Cl | inactive |
| O=C(O)CCCCCCCCCCC(=O)O | inactive |
| O=P(OC(CCl)CCl)(OC(CCl)CCl)OC(CCl)CCl | inactive |
| O=C1CCC(N2C(=O)c3ccccc3C2=O)C(=O)N1 (centres undefined) | inactive |
| CCC(O)OC(O)CC (centres undefined) | inactive |
| CCCCCCCC(=O)OC | inactive |
| C=CCNC(N)=S | inactive |
| Nc1ccccc1[N+](=O)[O-] | inactive |
| CCN(CC)CCCC(C)Nc1ccnc2cc(Cl)ccc12 (centres undefined) | inactive |
| CC1CCC(C(C)C)C(O)C1 (centres undefined) | inactive |
| ON=C1CCCCC1 | inactive |
| COc1cc(Cc2cnc(N)nc2N)cc(OC)c1OC | inactive |
| O=c1[nH]nnc2ccccc12 | inactive |
| CCCCCCCCCCCCS | inactive |
| CC(=O)CC(=O)Nc1ccccc1C | inactive |
| C[C@H]1C[C@H]2[C@@H]3CCC4=CC(=O)C=C[C@]4(C)[C@@]3(F)[C@@H](O)C[C@]2(C)[C@@]1(O)C(=O)CO | inactive |
| CC(=O)c1ccccc1 | inactive |
| CCCCN(CCCC)CCCC | inactive |
| Oc1cccc2ccccc12 | inactive |
| c1ccc(OCCOc2ccccc2)cc1 | inactive |
| CCCCCCCCCCCCCCCO | inactive |
| CCCCCC1=CCCC1=O | inactive |
| C[C@H]1C[C@@H]2[C@H]([C@@H](O)C[C@@]3(C)[C@H]2CC[C@]3(O)C(=O)CO)[C@@]2(C)C=CC(=O)C=C12 | inactive |
| Cc1cnc(C(=O)NCCc2ccc(S(=O)(=O)NC(=O)NC3CCCCC3)cc2)cn1 | inactive |
| O=C(O)c1cc(C(=O)O)cc(S(=O)(=O)O)c1 | inactive |
| c1ccc2scnc2c1 | inactive |
| CCCCC(CC)COC(=O)CCCCC(=O)OCC(CC)CCCC (centres undefined) | inactive |
